Data origin, for the record: paper PMC10992699

# pIC50 listing for each entry below
Test system: C. elegans young adults
Assay: C. elegans young adult motility dose-response assay
Assay type: cell-based, Caenorhabditis elegans
Conditions: Caenorhabditis elegans, 40 h, young adults; 40 h incubation; three independent assays in triplicate; read-out: Worm motility IC50 ± SD, C. elegans young adults
pIC50: −log10 of the molar value.
readout: pIC50

compound="FC(F)(F)Oc1cccc(C#Cc2ccc(-c3ccn[nH]3)cc2)c1 [Compound 13]" systemundertest="C. elegans young adults" recordedvalue="< 4.40"
compound="C[C@](C#N)(COc1cc(C#N)ccc1C(F)(F)F)NC(=O)c1ccc(SC(F)(F)F)cc1 [Monepantel, monepantel, reference compound]" systemundertest="C. elegans young adults" recordedvalue=7.52
compound="Clc1ccc(C#Cc2ccc(-c3ccn[nH]3)cc2)cc1 [Compound 20]" systemundertest="C. elegans young adults" recordedvalue="< 4.40"
compound="COc1ccc(C#Cc2ccc(-c3ccn[nH]3)cc2)cc1 [Compound 19]" systemundertest="C. elegans young adults" recordedvalue="< 4.40"
compound="C(#Cc1ccc(-c2ccn[nH]2)cc1)c1ccncc1 [Compound 22]" systemundertest="C. elegans young adults" recordedvalue="< 4.40"
compound="FC(F)(F)c1ccccc1C#Cc1ccc(-c2ccn[nH]2)cc1 [Compound 7]" systemundertest="C. elegans young adults" recordedvalue="< 4.40"
compound="Cc1nc(-c2ccc(C#Cc3ccccc3)cc2)no1 [Compound 32]" systemundertest="C. elegans young adults" recordedvalue=4.74
compound="C(#Cc1ccc(-c2ccn[nH]2)cc1)c1ccccc1 [UMW-9729]" systemundertest="C. elegans young adults" recordedvalue=4.85
compound="Cc1ccc(C#Cc2ccc(-c3ccn[nH]3)cc2)cc1 [Compound 18]" systemundertest="C. elegans young adults" recordedvalue="< 4.40"
compound="Cc1cccc(C#Cc2ccc(-c3ccn[nH]3)cc2)c1 [Compound 11]" systemundertest="C. elegans young adults" recordedvalue="< 4.40"
compound="c1ccc(CCc2ccc(-c3ccn[nH]3)cc2)cc1 [Compound 28]" systemundertest="C. elegans young adults" recordedvalue="< 4.40"
compound="C(#Cc1cccc(-c2ccn[nH]2)c1)c1ccccc1 [Compound 26, 5-(3-(phenylethynyl)phenyl)-1H-pyrazole]" systemundertest="C. elegans young adults" recordedvalue="< 4.40"
